tested on: platelets; test: potentiation (induced by 5-hydroxytryptamine) of platelet aggregation caused by adenosinephosphate; assay type: cell-based, rabbits; conditions: Oryctolagus cuniculus, Platelet; rabbit platelets; read-out: IC50, inhibition of potentiation (induced by 5-hydroxytryptamine) of platelet aggregation caused by adenosinephosphate

Compound | IC50 (µM)
C=CCN1CCCC1CNC(=O)c1cc(S(=O)(=O)NC)c(N)cc1OC (stereo not shown) | 19

###

molecular target: alpha-2 receptors (Oryctolagus cuniculus); construct: potentiation (induced by CLONIDINE) of platelet aggregation caused by adenosinephosphate; endogenous in cells; assay: potentiation (induced by CLONIDINE) of platelet aggregation caused by adenosinephosphate; details: rabbit platelets; read-out: IC50, anti-adrenergic effect (potentiation induced by CLONIDINE of platelet aggregation caused by adenosinephosphate)
Sequence (Q5ZQK3 1-451): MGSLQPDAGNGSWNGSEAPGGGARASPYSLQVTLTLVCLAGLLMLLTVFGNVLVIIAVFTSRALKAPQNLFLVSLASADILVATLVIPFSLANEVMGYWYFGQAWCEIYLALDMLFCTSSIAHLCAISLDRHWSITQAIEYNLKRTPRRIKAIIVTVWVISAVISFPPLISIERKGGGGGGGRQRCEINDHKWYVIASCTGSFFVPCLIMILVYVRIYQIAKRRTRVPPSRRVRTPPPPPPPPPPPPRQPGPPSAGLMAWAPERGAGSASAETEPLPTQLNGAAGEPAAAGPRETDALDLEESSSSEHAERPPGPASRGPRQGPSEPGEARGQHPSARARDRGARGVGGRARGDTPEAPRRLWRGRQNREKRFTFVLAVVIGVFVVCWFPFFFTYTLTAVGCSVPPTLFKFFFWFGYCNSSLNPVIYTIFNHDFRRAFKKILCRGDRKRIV

Compound | IC50 [µM]
C=CCN1CCCC1CNC(=O)c1cc(S(=O)(=O)NC)c(N)cc1OC (stereo not shown) | 29.5

###

tested on: platelets; experiment: potentiation (induced by adrenaline) of platelet aggregation caused by adenosinephosphate; type: cell-based, rabbits; conditions: Oryctolagus cuniculus, Platelet; rabbit platelets; read-out: IC50, inhibition of potentiation (induced by adrenaline) of platelet aggregation caused by adenosinephosphate
pIC50: −log10 of the molar value.

Molecule | Target Entity | pIC50
C=CCN1CCCC1CNC(=O)c1cc(S(=O)(=O)NC)c(N)cc1OC (stereo not shown) | platelets | 5.00
